test: Water solubility in citric acid/Na2HPO4 buffered water; format: physicochemical; conditions: water buffered with citric acid/Na2HPO4, aqueous buffer, thermodynamic from solid, pH 4.05, shaken 1 day at room temperature, UV spectroscopy
MEASURED METRIC: solubility at 1 day

{"COMPOUND": "CCC(COCCN(CC)CC)n1ncn(-c2ccc(N3CCN(c4ccc(OCC5COC(Cn6cncn6)(c6ccc(F)cc6F)O5)cc4)CC3)cc2)c1=O (stereo not shown)", "MEASURED METRIC": "solubility at 1 day", "RESULT": "> 12 mg/mL"}

---

experiment: Water solubility in citric acid/Na2HPO4 buffered water; assay type: physicochemical; conditions: water buffered with citric acid/Na2HPO4, aqueous buffer, thermodynamic from solid, pH 3.65, shaken 1 day at room temperature, UV spectroscopy

{"COMPOUND": "CC(OCC(N)Cc1ccccc1)C(C)n1ncn(-c2ccc(N3CCN(c4ccc(OCC5COC(Cn6cncn6)(c6ccc(F)cc6F)O5)cc4)CC3)cc2)c1=O (stereo not shown) [Compound 3]", "solubility at 1 day": "> 7090 µg/mL"}
